Reference source: patent US11795165B2

subject.of.test: His-Tagged hOGA (human O-GlcNAcase) (Homo sapiens (Human), UniProt O60502)
Sequence (O60502 whole entry): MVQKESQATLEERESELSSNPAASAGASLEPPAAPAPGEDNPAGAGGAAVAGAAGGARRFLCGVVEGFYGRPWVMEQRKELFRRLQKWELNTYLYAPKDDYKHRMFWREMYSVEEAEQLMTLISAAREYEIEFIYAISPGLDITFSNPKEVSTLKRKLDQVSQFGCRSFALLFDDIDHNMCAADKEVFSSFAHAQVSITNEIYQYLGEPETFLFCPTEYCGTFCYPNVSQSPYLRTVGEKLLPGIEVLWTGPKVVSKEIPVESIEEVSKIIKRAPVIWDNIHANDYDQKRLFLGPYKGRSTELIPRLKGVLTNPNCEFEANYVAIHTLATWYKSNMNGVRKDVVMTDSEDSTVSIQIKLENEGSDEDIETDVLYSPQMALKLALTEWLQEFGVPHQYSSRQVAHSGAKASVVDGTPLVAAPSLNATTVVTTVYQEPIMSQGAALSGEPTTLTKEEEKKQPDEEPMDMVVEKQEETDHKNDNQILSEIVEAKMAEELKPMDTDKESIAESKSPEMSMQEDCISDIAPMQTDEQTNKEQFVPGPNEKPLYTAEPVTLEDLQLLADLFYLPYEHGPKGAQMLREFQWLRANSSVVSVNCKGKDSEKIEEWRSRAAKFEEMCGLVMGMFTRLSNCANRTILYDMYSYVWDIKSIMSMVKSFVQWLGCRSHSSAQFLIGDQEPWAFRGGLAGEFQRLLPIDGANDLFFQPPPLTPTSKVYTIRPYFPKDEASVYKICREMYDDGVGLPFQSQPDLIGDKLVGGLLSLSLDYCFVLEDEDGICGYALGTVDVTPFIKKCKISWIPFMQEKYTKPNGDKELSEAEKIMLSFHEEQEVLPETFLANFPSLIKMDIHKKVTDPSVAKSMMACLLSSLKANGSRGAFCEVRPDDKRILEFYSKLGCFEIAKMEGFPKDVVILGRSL
experiment.summary: Human O-GlcNAcase enzyme inhibition assay (OGA enzyme inhibition assay)
Format: biochemical
condition.notes: His-Tagged hOGA 20 nM, FL-GlcNAc 10 μM, 60 min at room temperature, pH 6.5; activity classes
pIC50: −log10 of the molar value.
result.type: pIC50

Tell me its pIC50 given CC(c1ccc2scnc2c1)N1CCCc2cc(S(C)(=O)=O)ccc2C1 (racemic) as the entry. 6.00 to 6.70

Determine from records and report pIC50 for CC(c1ccc2scnc2c1)N1CCc2ccc(-c3cnn(C)c3)cc2CC1 (racemic) > 7.30

Retrieve pIC50 measured for COc1ccc2c(c1)CCN(C(C)c1ccc3scnc3c1)CC2O (racemic) and print it. 6.70 to 7.30

Please look at this compound and report its pIC50: Cc1cc(Oc2ccc3c(c2)CCN(C(C)c2ccc4scnc4c2)CC3)nc(C)n1 (racemic) > 7.30

Indicate the recorded pIC50 value for this compound: CC(=O)Nc1ccc2c(c1)CCN(C(C)c1ccc3scnc3c1)CC2 (racemic) > 7.30

----------
Please go through the items and note down their pIC50.
pIC50: −log10 of the molar value.

Please report the measured pIC50 for CC(c1ccc2scnc2c1)N1CCCc2cc(Br)ccc2C1 (racemic) [Example 13] tested on His-Tagged hOGA (human O-GlcNAcase) (Homo sapiens (Human)). 6.00 to 6.70

Provide the reported pIC50 (system: His-Tagged hOGA (human O-GlcNAcase) (Homo sapiens (Human))) for CC(c1ccc2scnc2c1)N1CCc2ccc(-c3ccccn3)cc2CC1 (racemic) [Example 32] 5.00 to 6.00

Recall the reported pIC50 of COc1ccc2c(n1)CCN(C(C)c1ccc3scnc3c1)CC2 (racemic) [Example 31] when tested on His-Tagged hOGA (human O-GlcNAcase) (Homo sapiens (Human)). > 7.30

Report its pIC50 with His-Tagged hOGA (human O-GlcNAcase) (Homo sapiens (Human)) as the test system: CSc1ccc2c(c1)CCN(C(C)c1ccc3scnc3c1)CC2 (single isomer, unassigned) [Example 119] > 7.30

Provide pIC50, recorded with His-Tagged hOGA (human O-GlcNAcase) (Homo sapiens (Human)), of COc1ccc2c(c1)CCN([C@@H](C)c1ccc3scnc3c1)CC2 [Example 5] > 7.30

Write down measured pIC50 (His-Tagged hOGA (human O-GlcNAcase) (Homo sapiens (Human))) for this compound. CC(C)COc1ccc2c(c1)CCN(C(C)c1ccc3scnc3c1)CC2 (single isomer, unassigned) [Example 27] 6.00 to 6.70

Please look at CC(c1ccc2scnc2c1)N1CCCc2ncc(NS(=O)(=O)C3CC3)cc2C1 (racemic) [Example 121] and tell me its recorded pIC50 on His-Tagged hOGA (human O-GlcNAcase) (Homo sapiens (Human)). 6.00 to 6.70

Tell me pIC50 of CC(c1ccc2scnc2c1)N1CCc2ccc(S(C)(=O)=O)cc2CC1 (racemic) [Example 18] when tested on His-Tagged hOGA (human O-GlcNAcase) (Homo sapiens (Human)). > 7.30

Tell me its pIC50 on His-Tagged hOGA (human O-GlcNAcase) (Homo sapiens (Human)): COc1ccc2c(c1)CCN(C(C)c1ccc3nccnc3c1)CC2 (racemic) [Example 12] > 7.30

Answer with pIC50 of CSc1ccc2c(c1)CCN(C(C)c1ccc3scnc3c1)CC2 (racemic) [Example 111] measured for His-Tagged hOGA (human O-GlcNAcase) (Homo sapiens (Human)). > 7.30

Under His-Tagged hOGA (human O-GlcNAcase) (Homo sapiens (Human)): report pIC50 of CC(c1ccc2scnc2c1)N1CCCc2cc(-c3cnn(C)c3)ccc2C1 (racemic) [Example 110] . 6.00 to 6.70
